# TEST_SYSTEM: Integrin alpha-4/beta-1 (Homo sapiens, UniProt P05556+P13612)
# Sequence (P05556 whole entry): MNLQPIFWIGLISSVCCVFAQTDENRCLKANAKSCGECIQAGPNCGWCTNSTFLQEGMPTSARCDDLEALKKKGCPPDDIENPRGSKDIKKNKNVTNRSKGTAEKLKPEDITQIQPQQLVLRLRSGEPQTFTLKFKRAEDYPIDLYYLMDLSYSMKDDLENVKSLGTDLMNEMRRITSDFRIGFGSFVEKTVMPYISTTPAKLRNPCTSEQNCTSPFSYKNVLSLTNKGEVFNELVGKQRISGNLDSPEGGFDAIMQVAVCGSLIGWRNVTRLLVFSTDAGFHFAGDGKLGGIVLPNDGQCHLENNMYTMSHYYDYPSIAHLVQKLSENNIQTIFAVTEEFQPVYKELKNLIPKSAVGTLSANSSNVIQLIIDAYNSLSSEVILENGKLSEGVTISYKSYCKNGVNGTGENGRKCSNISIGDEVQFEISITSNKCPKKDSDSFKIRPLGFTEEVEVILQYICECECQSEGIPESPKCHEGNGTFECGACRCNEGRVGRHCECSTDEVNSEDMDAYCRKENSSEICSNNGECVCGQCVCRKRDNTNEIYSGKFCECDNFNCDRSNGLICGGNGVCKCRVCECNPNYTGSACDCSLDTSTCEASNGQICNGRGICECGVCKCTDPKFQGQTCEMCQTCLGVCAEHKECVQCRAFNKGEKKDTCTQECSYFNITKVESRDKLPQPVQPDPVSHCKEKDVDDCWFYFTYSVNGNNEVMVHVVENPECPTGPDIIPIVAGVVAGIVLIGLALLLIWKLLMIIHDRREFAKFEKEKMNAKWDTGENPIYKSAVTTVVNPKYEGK
# Sequence (P13612 whole entry): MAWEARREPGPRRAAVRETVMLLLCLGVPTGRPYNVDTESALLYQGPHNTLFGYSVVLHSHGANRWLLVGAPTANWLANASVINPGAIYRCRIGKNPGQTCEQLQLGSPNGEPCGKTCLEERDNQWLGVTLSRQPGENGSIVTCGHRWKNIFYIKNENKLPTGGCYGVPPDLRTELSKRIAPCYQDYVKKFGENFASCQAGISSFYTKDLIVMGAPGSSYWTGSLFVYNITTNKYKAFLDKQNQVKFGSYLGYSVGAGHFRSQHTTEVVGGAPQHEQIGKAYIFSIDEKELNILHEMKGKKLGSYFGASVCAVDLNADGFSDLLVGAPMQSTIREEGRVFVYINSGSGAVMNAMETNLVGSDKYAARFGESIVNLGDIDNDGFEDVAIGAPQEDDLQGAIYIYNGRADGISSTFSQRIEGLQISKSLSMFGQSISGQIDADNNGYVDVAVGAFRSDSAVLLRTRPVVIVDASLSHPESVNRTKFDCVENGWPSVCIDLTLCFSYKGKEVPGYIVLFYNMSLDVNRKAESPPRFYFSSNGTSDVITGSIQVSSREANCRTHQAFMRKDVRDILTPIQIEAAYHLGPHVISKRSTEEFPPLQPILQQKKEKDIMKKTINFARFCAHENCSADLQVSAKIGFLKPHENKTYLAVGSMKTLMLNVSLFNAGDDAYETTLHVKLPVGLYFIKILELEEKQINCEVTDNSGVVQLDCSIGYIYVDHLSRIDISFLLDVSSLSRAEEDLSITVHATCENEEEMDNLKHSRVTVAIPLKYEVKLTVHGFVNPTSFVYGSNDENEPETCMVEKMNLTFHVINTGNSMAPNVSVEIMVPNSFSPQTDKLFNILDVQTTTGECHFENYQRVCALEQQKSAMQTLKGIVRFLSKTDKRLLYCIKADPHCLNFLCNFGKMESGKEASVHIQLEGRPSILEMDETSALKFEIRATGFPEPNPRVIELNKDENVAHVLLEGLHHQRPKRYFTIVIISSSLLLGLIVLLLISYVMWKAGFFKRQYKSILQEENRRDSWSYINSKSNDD
# ASSAY_NAME: Inhibitory binding concentration against VCAM/VLA-4 in ELISA.
# Assay type: protein-complex assay
MEASURED_METRIC: IC50 (nM)

Examples from the recorded data:
COc1ccc(C(=O)N[C@@H](Cc2ccc(NC(=O)c3c(Cl)cccc3Cl)cc2)C(=O)O)c(Cl)c1: 1.9
O=C(Nc1ccc(C[C@H](NC(=O)c2c(F)cccc2C(F)(F)F)C(=O)O)cc1)c1c(Cl)cccc1Cl: 0.4
Cc1cccc(F)c1C(=O)N[C@@H](Cc1ccc(NC(=O)c2c(Cl)cccc2Cl)cc1)C(=O)O: 0.44
Cc1ccc(Cl)c(C(=O)N[C@@H](Cc2ccc(NC(=O)c3c(Cl)cccc3Cl)cc2)C(=O)O)c1: 11

[I] O=C(N[C@@H](Cc1ccc(NC(=O)c2c(Cl)cccc2Cl)cc1)C(=O)O)c1cc(C(F)(F)F)ccc1Cl
[II] CCCc1cccc(C)c1C(=O)N[C@@H](Cc1ccc(NC(=O)c2c(Cl)cccc2Cl)cc1)C(=O)O
[III] O=C(N[C@@H](Cc1ccc(NC(=O)c2c(Cl)cccc2Cl)cc1)C(=O)O)c1ccccc1C(F)(F)F
[IV] O=C(N[C@@H](Cc1ccc(NC(=O)c2c(Cl)cccc2Cl)cc1)C(=O)O)c1cncnc1C(F)(F)F
Order the 4 compounds from highest to lowest IC50. Would you mind listing the labels in the order requested?
III, I, IV, II
(III: 16 nM, I: 8.8 nM, IV: 2 nM, II: 0.42 nM)

* * *

# TEST_SYSTEM: Integrin alpha-4/beta-1 (Homo sapiens, UniProt P05556+P13612)
# ASSAY_NAME: Inhibitory binding concentration against VCAM/VLA-4 in Ramos.
# Assay type: protein-complex assay
MEASURED_METRIC: IC50 (nM)

[P] Cc1cccc(Cl)c1C(=O)N[C@@H](Cc1ccc(NC(=O)c2c(Cl)cccc2Cl)cc1)C(=O)O
[Q] Cc1cccc(C(=O)N[C@@H](Cc2ccc(NC(=O)c3c(Cl)cccc3Cl)cc2)C(=O)O)c1Cl
[R] Cc1ncccc1C(=O)N[C@@H](Cc1ccc(NC(=O)c2c(Cl)cccc2Cl)cc1)C(=O)O
// sort entries: IC50, high to low Arrange the labels as the request states and list them.
Q, R, P

* * *

# TEST_SYSTEM: Integrin alpha-4/beta-1 (Homo sapiens, UniProt P05556+P13612)
# ASSAY_NAME: Inhibitory binding concentration against VCAM/VLA-4 in Ramos.
# Format: protein-complex assay
MEASURED_METRIC: IC50 (µM)

Example entries begin here.
O=C(N[C@@H](Cc1ccc(NC(=O)c2c(Cl)cccc2Cl)cc1)C(=O)O)c1cc(C(F)(F)F)ccc1Cl: 0.45
O=C(N[C@@H](Cc1ccc(NC(=O)c2c(Cl)cccc2Cl)cc1)C(=O)O)c1cncnc1C(F)(F)F: 0.19
Cc1noc(C)c1C(=O)N[C@@H](Cc1ccc(NC(=O)c2c(Cl)cccc2Cl)cc1)C(=O)O: 0.58
CC(C)c1cccc(C(C)C)c1C(=O)N[C@@H](Cc1ccc(NC(=O)c2c(Cl)cccc2Cl)cc1)C(=O)O: 0.46
O=C(N[C@@H](Cc1ccc(NC(=O)c2c(Cl)cccc2Cl)cc1)C(=O)O)c1c(F)cccc1F: 0.067

[A] CC(C)(C)c1ccccc1C(=O)N[C@@H](Cc1ccc(NC(=O)c2c(Cl)cccc2Cl)cc1)C(=O)O
[B] O=C(N[C@@H](Cc1ccc(NC(=O)c2c(Cl)cccc2Cl)cc1)C(=O)O)c1ccccc1C(F)(F)F
Could you point out whether the larger IC50 belongs to A or to B ? Pick one; state its label.
B
(B: 0.65 µM, A: 0.074 µM)
